All figures here come from BigSolDB 2.1.

# run parameters: in methanol, 318.15 K
measurement kind: solubility (mole fraction)

// solubility (mole fraction) lookup, key: Cl.O=C(O)c1cn(-c2ccc(F)cc2)c2cc(N3CCNCC3)c(F)cc2c1=O
0.00411

----------
# run parameters: in DMF, 313.15 K
measurement kind: solubility (mole fraction)
Answers are plain numbers.

// lookup solubility (mole fraction) for Cl.O=C(O)c1cn(-c2ccc(F)cc2)c2cc(N3CCNCC3)c(F)cc2c1=O
0.0029

----------
# run parameters: in isopropanol, 303.15 K
measurement kind: solubility (mole fraction)
Numbers only.

Look up solubility (mole fraction): Cl.O=C(O)c1cn(-c2ccc(F)cc2)c2cc(N3CCNCC3)c(F)cc2c1=O
0.0011
